This section presents compounds with their documented melting point values.

For orientation, consider the following solved cases.
O=[N+]([O-])C=C(NCC1CCCO1)NNc1cc(C(F)(F)F)cc(Cl)n1 (stereo not drawn)    164 °C (dec.)
CNC(=C[N+](=O)[O-])NNc1cc(C(F)(F)F)cc(OCC2CCCCO2)n1 (stereo not drawn)    93 to 95 °C
CNC(=C[N+](=O)[O-])NNc1cc(C(F)(F)F)cc(OCc2ccccn2)n1    170 °C (dec.)

Kindly note the recorded melting point for `CCS(=O)(=O)NC(=C[N+](=O)[O-])NNc1cc(C(F)(F)F)cc(Cl)n1` , which is 114 to 119 °C (dec.)

# melting point (compound: `CNC(=C[N+](=O)[O-])NNc1cc(C(F)(F)F)cc(OCc2ccco2)n1` ) is 154 °C (dec.)

----------
assayed target: human MMP-9 (gelatinase B) (Homo sapiens)
Construct: endogenous in cells; host or cells: HT1080 human fibrosarcoma cells (ATCC CCL-121), PMA-stimulated; enzyme purified from the culture supernatant
test method notes: Inhibition activity against human MMP-9 (gelatinase B), fluorescent peptide substrate
Assay type: biochemical
settings: compounds of the formula (I); 1st measurement; read-out: MMP-9 inhibition activities IC50, 1st
recorded endpoint: IC50 (µM)

The following compounds have reported results that may help.
CNC(=C[N+](=O)[O-])NNc1ccc([N+](=O)[O-])cc1    20.1
CNC(=C[N+](=O)[O-])NNc1cc(C(F)(F)F)cc(OCc2ccco2)n1    39.8
CNC(=C[N+](=O)[O-])NNc1ncccn1    33.8

(1) CNC(=C[N+](=O)[O-])NNc1cc(C(F)(F)F)cc(OCCc2ccccn2)n1
(2) CNC(=C[N+](=O)[O-])NNc1cccc(Cl)n1
(3) CNC(=C[N+](=O)[O-])NNc1cc(OCCOC)cc(C(F)(F)F)c1
Please give the order of these compounds when sorted by IC50, largest value leading. Labels, ranked as asked.
1, 3, 2

(a) CNC(=C[N+](=O)[O-])NN(C)c1ccc(C(F)(F)F)cn1
(b) O=[N+]([O-])C=C(NNc1cc(C(F)(F)F)cc(Cl)n1)NS(=O)(=O)c1ccccc1
Which value of IC50 is greater, the one for a or the one for b ? Indicate your choice by writing its label.
a
(a: 19.7 µM, b: 7.9 µM)

(I) CNC(=C[N+](=O)[O-])NN=Cc1ccc(Cl)cc1
(II) CNC(=C[N+](=O)[O-])NNc1cc(C(F)(F)F)cc(OCc2ccccn2)n1
Larger number for IC50: I , or II ? Label of pick, please.
I

(1) CNC(=C[N+](=O)[O-])NNc1cc(C(F)(F)F)cc(OCCCc2ccccn2)n1
(2) CNC(=C[N+](=O)[O-])NNc1ccc2ccccc2n1
(3) O=[N+]([O-])C=C(NCC1CCCO1)NNc1cc(C(F)(F)F)cc(Cl)n1 (stereo not shown)
(4) NNC(=C[N+](=O)[O-])Nc1ccc(F)cc1
List the 4 entries from lowest IC50 to highest IC50 value. Form entry: ranked labels (order as requested).
2, 3, 4, 1

----------
recorded endpoint: melting point

Notebook: `CNC(=C[N+](=O)[O-])NN=CC=Cc1ccccc1` , melting point read as 180 °C (dec.)

----------
assayed target: human MMP-9 (gelatinase B) (Homo sapiens)
Construct: endogenous in cells; host or cells: HT1080 human fibrosarcoma cells (ATCC CCL-121), PMA-stimulated; enzyme purified from the culture supernatant
test method notes: Inhibition activity against human MMP-9 (gelatinase B), fluorescent peptide substrate
Type: biochemical
settings: intermediates, compounds of the formula (IV); 2nd measurement; read-out: MMP-9 inhibition activities IC50, 2nd
pIC50: −log10 of the molar value.
recorded endpoint: pIC50

CSC(=C[N+](=O)[O-])NC1CCCC1 [Intermediate 3]    4.43

(P) CSC(=C[N+](=O)[O-])Nc1ccc(O)cc1 [Intermediate 12]
(Q) COc1cccc(NC(=C[N+](=O)[O-])SC)c1 [Intermediate 20]
Compare pIC50: is it lower for P or for Q ? Bench note: the answer is the label of the chosen record.
Q
(Q: 4.30, P: 4.61)

----------
assayed target: human MMP-9 (gelatinase B) (Homo sapiens)
Construct: endogenous in cells; host or cells: HT1080 human fibrosarcoma cells (ATCC CCL-121), PMA-stimulated; enzyme purified from the culture supernatant
test method notes: Inhibition activity against human MMP-9 (gelatinase B), fluorescent peptide substrate
Format: biochemical
settings: intermediates, compounds of the formula (IV); average of 1st and 2nd (or single measurement); read-out: MMP-9 inhibition activities IC50, Average
pIC50: −log10 of the molar value.
recorded endpoint: pIC50

CNC(=C[N+](=O)[O-])SC [Intermediate 5]    4.57

(I) CSC(=C[N+](=O)[O-])NS(C)(=O)=O (single isomer, unassigned) [Intermediate 64]
(II) COc1ccccc1NC(=C[N+](=O)[O-])SC [Intermediate 25]
Lower pIC50: I or II ? Respond using the label that marks the chosen record.
II

----------
assayed target: human MMP-9 (gelatinase B) (Homo sapiens, UniProt P14780)
Construct: endogenous in cells; host or cells: HT1080 human fibrosarcoma cells (ATCC CCL-121), PMA-stimulated; enzyme purified from the culture supernatant
Sequence (P14780 107-707 limits assumed): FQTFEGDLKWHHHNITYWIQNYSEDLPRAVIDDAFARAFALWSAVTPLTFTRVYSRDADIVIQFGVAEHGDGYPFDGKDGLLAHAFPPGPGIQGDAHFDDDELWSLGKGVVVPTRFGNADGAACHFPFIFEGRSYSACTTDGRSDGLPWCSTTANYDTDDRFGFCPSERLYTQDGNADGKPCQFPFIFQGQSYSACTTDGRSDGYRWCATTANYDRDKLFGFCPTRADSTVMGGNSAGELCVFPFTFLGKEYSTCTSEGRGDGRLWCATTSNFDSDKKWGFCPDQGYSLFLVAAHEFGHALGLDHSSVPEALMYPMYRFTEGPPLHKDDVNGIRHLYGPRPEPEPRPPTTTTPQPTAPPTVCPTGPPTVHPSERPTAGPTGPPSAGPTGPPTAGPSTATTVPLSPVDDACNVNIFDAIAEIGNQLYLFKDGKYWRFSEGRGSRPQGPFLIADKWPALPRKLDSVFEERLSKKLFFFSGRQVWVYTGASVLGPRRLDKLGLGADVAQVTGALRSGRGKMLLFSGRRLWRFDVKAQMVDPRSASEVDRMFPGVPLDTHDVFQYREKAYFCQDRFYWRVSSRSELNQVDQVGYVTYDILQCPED
test method notes: Inhibition activity against human MMP-9 (gelatinase B), fluorescent peptide substrate
Format: biochemical
settings: compounds of the formula (I); 1st measurement; read-out: MMP-9 inhibition activities IC50, 1st
recorded endpoint: IC50 (µM)

Some solved cases for reference:
CC(C)NC(=C[N+](=O)[O-])NN [compound 88]    37.7
CNC(=C[N+](=O)[O-])NN=Cc1ccc(C(=O)O)cc1 [compound 142]    20.4
CNC(=C[N+](=O)[O-])NNc1nc(OC)nc(OC)n1 [compound 104]    21.1
CNC(=C[N+](=O)[O-])NNc1ncc(C(F)(F)F)cc1[N+](=O)[O-] [compound 96]    24.5
CNC(=C[N+](=O)[O-])NNc1cc(C(F)(F)F)cc(Cl)n1 [Compound No. 37]    4.5

(A) CNC(=C[N+](=O)[O-])NNc1cc(C(F)(F)F)cc(OCc2cccnc2)n1 [compound 123]
(B) C=C1C(C)=NN/C(=C\[N+](=O)[O-])N1c1ccccc1 [compound 155]
(C) O=[N+]([O-])C=C(NNc1cc(C(F)(F)F)cc(Cl)n1)NS(=O)(=O)c1ccc(-c2ccccc2)cc1 [compound 162]
(D) CCCCNC(=C[N+](=O)[O-])NN [compound 85]
Rank items: key IC50, increasing. Answer format: the labels, in the requested order.
C, A, B, D
(C: 6.3 µM, A: 13.9 µM, B: 24.3 µM, D: 52.8 µM)

----------
assayed target: human MMP-9 (gelatinase B) (Homo sapiens)
Construct: endogenous in cells; host or cells: HT1080 human fibrosarcoma cells (ATCC CCL-121), PMA-stimulated; enzyme purified from the culture supernatant
test method notes: Inhibition activity against human MMP-9 (gelatinase B), fluorescent peptide substrate
Type: biochemical
settings: compounds of the formula (I); 2nd measurement; read-out: MMP-9 inhibition activities IC50, 2nd
Experimental: Human MMP-9 (gelatinase B) was purified by the following method from a culture supernatant of HT1080 cells (human fibrosarcoma). […] The inhibition activity against human MMP-9 was measured by the following method in accordance with the method by C. […]
recorded endpoint: IC50 (µM)

Please review the entries below; each comes with its answer.
CNC(=C[N+](=O)[O-])NNc1cc(C(F)(F)F)cc(OCc2ccccn2)n1    16.3
CNC(=C[N+](=O)[O-])NNc1cc(C(F)(F)F)cc(OCCOCCOC)n1    8.4

(A) NNC(=C[N+](=O)[O-])NCc1cccc(C(F)(F)F)c1
(B) CNC(=C[N+](=O)[O-])NNc1ncc(C(F)(F)F)cc1Cl
Which value of IC50 is numerically greater: that of A or that of B ? Output the label that corresponds to your choice.
A
(A: 35.2 µM, B: 18.1 µM)

(A) NNC(=C[N+](=O)[O-])NCc1ccncc1
(B) CCCCOCCOc1cc(C(F)(F)F)cc(NNC(=C[N+](=O)[O-])NC)n1
Please let me know which one, A or B , has a lower measured IC50 value. // caller expects the label of the chosen entry
B

(I) CNC(=C[N+](=O)[O-])NNc1ncc(C(F)(F)F)cc1[N+](=O)[O-]
(II) NNC(=C[N+](=O)[O-])NN1CCOCC1
(III) O=[N+]([O-])C=C(NCC1CCCO1)NNc1cc(C(F)(F)F)cc(Cl)n1 (centres unmarked)
(IV) CNC(=C[N+](=O)[O-])NNc1ccc2ccccc2n1
Order the entries by their reported IC50, beginning at the minimum. Provide your answer as the labels ordered per the instruction.
IV, III, I, II

----------
melting point values for the compounds below.

Examples with answers:
CCNC(=C[N+](=O)[O-])NNc1cc(C(F)(F)F)cc(Cl)n1    206 °C (dec.)
NNC(=C[N+](=O)[O-])NC1Cc2ccccc2C1    193 to 197 °C (dec.)
CSC(=C[N+](=O)[O-])Nc1ccc2c(c1)OCO2 [Intermediate 51]    153 to 155 °C

Switching to the query record.
response.value for `COc1ccc(NC(=C[N+](=O)[O-])NN)cc1OC` (field: melting point) = 148 °C
